From: the supplement of paper PMC9170038

System: K4 kissing-loop RNA reporter
Assay: apparent KD of K4 kissing-loop reporter; higher = weaker reporter binding
Details: Eterna round: R107; input ligand: theophylline 20 uM
Consider the following sequences and their measured apparent KD of K4 kissing-loop reporter readings.
The answer is to be given in nM; state only the numeric part.

INSERT INTO measurements (sequenceinput, measurednumber) VALUES
  ('GGCUUAUUCUAUGAUACCAGCGUCACAUCGGGACUGCGCACGCAGCAGGCGAGUGAUGUUCGCCCUUGGCAGCAUCUCGGCGACU [theeternabot_exclusion_KL_Theo_B_26]', 250);

sequence AAGUGUGUGGCGGCCGCCACUAGAAUCCAGUGAUGUUGGAGAUAUCACGUAAGUGAUAUCCAACAUAGGACCGGGCCAUAUAGAA [Same State - Tryptophan B (Freestyle 12)] , apparent KD of K4 kissing-loop reporter observed: 210

Form field apparent KD of K4 kissing-loop reporter, entry AAUUAAUGUAUAGAUUAUAUACAUUAAUCAGAGGAUAUGCAUUGUUGCAGAAGGCUGAAUGCAGUGAUGUUGCAAUGGAAAUUUA [JR_SSFMNA_Sub004] : 376

Quick note, apparent KD of K4 kissing-loop reporter for "UGACUGGACUGAAGGAGCGCGAAACUCCUAGUGAUGUUAGGAUAACGAGACAAAGUCUCGACGCAGGUAGGUCGCAGUCUAGUCU" landed at 119

Lab book: apparent KD of K4 kissing-loop reporter of UGGUGCCAUUGGCGGGUAGAUAGUGGUGGCAAGGAUAUGUGAGCGAACAGAAGGUGCAUCAAGUUCAGUGAUGUUGGGCUCGAUU [theeternabot_sameState_KL_FMN_A_20] noted as 254

Consider GCGCGUCAUGUCAGCGGUGACACUGUCGAUACCAGUGCCGGAAGGCGCCCUUGGCAGCGACGUGCUGGAGUGAUGUUCCAGCGUU [#2 Exclusion - Theophylline A Attempt #28 (HarryS)] . Its measured apparent KD of K4 kissing-loop reporter is 131

====

System: MS2 coat protein
Experiment: apparent KD of MS2 coat protein; designed switch direction (-1 OFF switch, 1 ON switch): 1; higher = weaker reporter binding
Conditions: input ligand: FMN 200 uM
Catalogue of sequences with associated apparent KD of MS2 coat protein

// UUGAAGAAUUAAGGAUAUCGAGUCGUCUAAUUAAACAUGAGGAUCACCCAUGUGGGUUGCGGUAUCGAGAAGGUAAAUUACUAG [JL JR Sub099 mod 3] (Eterna round: R96, puzzle: Same State NG 2) : apparent KD of MS2 coat protein value = 25.2 nM

====

Tested on: MS2 coat protein
Assay: apparent KD of MS2 coat protein; designed switch direction (-1 OFF switch, 1 ON switch): 1; higher = weaker reporter binding
Settings: input ligand: microRNA oligo, concentration not stated
valueType: apparent KD of MS2 coat protein

As a guide, the following entries are already answered.
INSERT INTO assay_data (sequenceinput, targetofassay, valuetype, result) VALUES
  ('ACAUGAGGAUCACCCAUGUAUAGAAUUGAAUGUUAAGAUACGUAGGAUAUCGAGAUUAGUAUGAUCGAGAAGGACGAUUAGAUA [JR_SSNG3_Sub064] (Eterna round: R96, puzzle: Same State NG 3)', 'MS2 coat protein', 'apparent KD of MS2 coat protein', '16.6 nM'),
  ('AACAUGAGGACAUGAACAUGAGGAUCACCCAUGUAUGUUUAUAAGGAUAUAUGAGGAGGAGGAGAAUAGAAGGUAUAGGGAGGG [This also seems to work] (Eterna round: R96, puzzle: Same State NG 3)', 'MS2 coat protein', 'apparent KD of MS2 coat protein', '35.5 nM');

// GCUAGAAAUAAAGCCAACAUGAGGAUCACCCAUGUAUGUUGGUAGGAUAUCGUAUGCAAAGCAUACGAGAAGGGCCAAACUAGC [Mat - Same State NG 3 - JL Mod - D21] (Eterna round: R96, puzzle: Same State NG 3) : apparent KD of MS2 coat protein value = 65.4 nM

The recorded apparent KD of MS2 coat protein for CCGAUUUAUGGAGGAUAUGGAGCCUUAUUGGCUCCAGAAGGUCAAUAACAUGAGGAUCACCCAUGUACGGCGGUCAAUAGACCG [Eli NG1ss - 70] (Eterna round: R96, puzzle: Same State NG 1) is 28.1 nM

For record GUGGUCAGACAUGAGGAUCACCCAUGUGGAAUAAAUAACACACAGGAUAUGUAAUAUAGGAUAUAACAGAAGGGUGGAUUGGUG (Eterna round: R96, puzzle: Same State NG 3) the listed apparent KD of MS2 coat protein is 297 nM

====

apparent KD of MS2 coat protein values by entry
System: MS2 coat protein
Assay: apparent KD of MS2 coat protein; designed switch direction (-1 OFF switch, 1 ON switch): -1; higher = weaker reporter binding
Conditions: input ligand: none
# number then unit; no other words

INSERT INTO assay_data (sequenceinput, result) VALUES
  ('CCUUAACAUGAGGAUCACCCAUGUGAGGAUAUGAUGCAGCAGUGGUCUACGCUGUGCAUCAGAAGGUACAUGGU (Eterna round: R96, puzzle: Exclusion 1)', '44.5 nM'),
  ('UUUUUUUUGGUAAGGAUAUGAUGCAGGAAACUGCGUCAGAAGGUACAUGAGGAUCACCCAUGUUAAUUUUUUUU [Explosion 11 - Jieux - Brourd''s mod of Exclusion 4] (Eterna round: R97, puzzle: Brourd''s mod of Exclusion 4)', '18.6 nM'),
  ('UCCUUACUGGUCAGGAUAUACAGUCGCGGGUGGGUGUAGAAGGGACAUGAGGAUCACCCAUGUACGUUACAGCC [alecazam54i] (Eterna round: R97, puzzle: Brourd''s mod of Exclusion 4)', '30.2 nM'),
  ('AAACAGCAAGGAUAUACGGGCUGUGCUUUUCAUAUCAUACAACAUGAGGAUCACCCAUGUAGAAGGUGCAACAA [Ex2 #3] (Eterna round: R97, puzzle: Exclusion 2)', '44 nM');

Kindly review the next sequence as well.
// assay MS2 coat protein, entry AUGCGACAUGAGGAUCACCCAUGUGAGGAUAUGCGAAUGCAUACUUCGGUGUGAUAGAGUAGAAGGCGCAGGUA [EX1 #17] (Eterna round: R97, puzzle: Exclusion 1) , apparent KD of MS2 coat protein value = 761 nM

====

System: MS2 coat protein
Test: apparent KD of MS2 coat protein; designed switch direction (-1 OFF switch, 1 ON switch): -1; higher = weaker reporter binding
Settings: input ligand: microRNA oligo, concentration not stated
Answer no if apparent KD of MS2 coat protein is under 50 nM, and yes if it is 50 nM or more.

Check out these entries, answers already filled in.
INSERT INTO results (sequenceinput, class) VALUES
  ('GCAUGCGACUGAGGAUAUGUAGUGACCUCAGUCGAGACAUGAGGAUCACCCAUGUACAGCACGUGACAGAAGGCAGCACAUGAU [Eternabot solution 14] (Eterna round: R96, puzzle: Exclusion NG 2)', 'no'),
  ('UCACGGGACUGAGGAUAUACAUGAAUUAUUUUUGUAGAAGGCAGAAUGUUAGUUUAUUCACUAUACAUGAGGAUCACCCAUGUU [JR_ExcNG1_Sub021] (Eterna round: R96, puzzle: Exclusion NG 1)', 'no'),
  ('UGAGUGCUGCGAGGAUAUACAUGAGGAUCACCCAUGUGGAUCUGUGAGGCUUUGCCUCACAGGAUGUAGAAGGCGCAGUACUCU [JL ENG2 1.19] (Eterna round: R96, puzzle: Exclusion NG 2)', 'no'),
  ('GCACGGAGUGUAGGAUAUCUGUGCGAUUAGCUCAGAGAAGGACACAUGAGGAUCACCCAUGUGUUCCACGGAAACGAACCGUGC [Eli exng1 - 052] (Eterna round: R96, puzzle: Exclusion NG 1)', 'no');

Hello, I need to know if UUUUGGCAUGUAGGAUAUGGGUCCGAUUGGGAUUUAGAAGGACAUGAGGAUCACCCAUGUGCCCUUACUUGGUCUUUUUUUUUU [EXclNG1-LROPPY19] (Eterna round: R96, puzzle: Exclusion NG 1) has measured apparent KD of MS2 coat protein not below 50 nM. Thanks! yes

====

System: K4 kissing-loop RNA reporter;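 also: bound reporter read as fluorescence of individual clusters on recovered sequencing chips by microscopy, with normalized cluster intensities fitted with a binding model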
Assay: apparent KD of K4 kissing-loop reporter; higher = weaker reporter binding
Conditions: Eterna round: R107; input ligand: arginine 13.2 mM
valueType: apparent KD of K4 kissing-loop reporter (nM)
Only the number, expressed in nM, is required.

INSERT INTO assay_data (sequenceinput, valueunit, measurednumber) VALUES
  ('GGAAGACACCUGAGUGAUGUUCGGGUGUGCCGAGGACCGGUACGGCCGCCACUCGGGUGGUACAGUUACUGAUUGGACCGCUAUC [Arbirace]', 'nM', 203);

"UGACUGGACUGAAGGAGCGCGAAACUCCUAGUGAUGUUAGGAUAACGAGACAAAGUCUCGACGCAGGUAGGUCGCAGUCUAGUCU" yielded apparent KD of K4 kissing-loop reporter of 92.6

Entry AGCCGAAAGGCGAGUGCUGUCACUCCGGAAGGAGCGCCCAAAAGGGCAGGUAGGUCGCCGGAGUGAUGUUCCGGUGCAGCACUCA [Omei KL Arginine A Exc B v3] ; apparent KD of K4 kissing-loop reporter = 497
